Tested on: HL-60
PROTOCOL DESCRIPTION: Cytotoxicity against human HL60 cells after 48 hrs by WST8 assay
Type: functional, cell-based
TEST SETTINGS: HL-60, 48 h
Lab note - cut at 9 µM for IC50: condition met if strictly below, condition not met if not.

1) Oc1ccc(/C=C/C[C@H]2C[C@@H]([C@@H](O)c3ccccc3)CO[C@@H]2c2ccccc2)cc1; condition met
2) O[C@@H](c1ccccc1)[C@H]1CO[C@H](c2ccccc2)[C@@H](C/C=C/C2CCCCC2)C1; condition met
3) O[C@@H](c1ccccc1)[C@H]1CO[C@H](c2ccccc2)[C@@H](C/C=C/c2ccccc2F)C1; condition not met
4) O[C@@H](c1ccccc1)[C@H]1CO[C@H](c2ccccc2)[C@@H](C/C=C/c2ccncc2)C1; condition not met
5) O=[N+]([O-])c1ccc(/C=C/C[C@H]2C[C@@H]([C@@H](O)c3ccccc3)CO[C@@H]2c2ccccc2)cc1; condition met
6) O[C@@H](c1ccccc1)[C@H]1CO[C@H](c2ccccc2)[C@@H](C/C=C/c2ccccn2)C1; condition not met

We now examine a further molecule.
Does this molecule meet the criterion IC50 < 9 µM? `Oc1ccccc1/C=C/C[C@H]1C[C@@H]([C@@H](O)c2ccccc2)CO[C@@H]1c1ccccc1`
condition not met

---

Test system: HL-60
PROTOCOL DESCRIPTION: Cytotoxicity against human HL60 cells after 48 hrs by WST8 assay
Type: functional, cell-based
TEST SETTINGS: HL-60, 48 h
REPORTED METRIC: IC50 (µM)
Give the value, in units of µM, as a plain number.

1. COc1ccccc1/C=C/C[C@H]1C[C@@H]([C@@H](O)c2ccccc2)CO[C@@H]1c1ccccc1; 10.1

For HL-60, give IC50 of the listed compound: `O=[N+]([O-])c1ccccc1/C=C/C[C@H]1C[C@@H]([C@@H](O)c2ccccc2)CO[C@@H]1c1ccccc1`
7.25

For HL-60, give IC50 of the listed compound: `O[C@@H](c1ccccc1)[C@H]1CO[C@H](c2ccccc2)[C@@H](C/C=C/c2ccc(F)cc2)C1`
8.11

---

System: HL-60
PROTOCOL DESCRIPTION: Cytotoxicity against human HL60 cells after 48 hrs by WST8 assay
Assay type: functional, cell-based
TEST SETTINGS: HL-60, 48 h
Listed here are compounds together with their documented pIC50.
Quick note: pIC50 values are minus log10 of concentrations in mol/L.

Indicate its recorded pIC50; the compound in question is `COc1ccc(/C=C/C[C@H]2C[C@@H]([C@@H](O)c3ccccc3)CO[C@@H]2c2ccccc2)cc1`
5.05

Indicate its recorded pIC50; the compound in question is `Cc1ccc(/C=C/C[C@H]2C[C@@H]([C@@H](O)c3ccccc3)CO[C@@H]2c2ccccc2)cc1C`
5.01

Indicate its recorded pIC50; the compound in question is `Oc1cccc(/C=C/C[C@H]2C[C@@H]([C@@H](O)c3ccccc3)CO[C@@H]2c2ccccc2)c1`
4.89

Indicate its recorded pIC50; the compound in question is `COc1cccc(/C=C/C[C@H]2C[C@@H]([C@@H](O)c3ccccc3)CO[C@@H]2c2ccccc2)c1`
5.02
